- TARGET SYSTEM: T1, HLA-A*02:01 (human)
- T1 construct: MHC class I monomer of the UV-ligand exchange assay; also called peptide-receptive MHC molecules; MHC class I
- MEASUREMENT NOTES: UV peptide-exchange ELISA
OUTCOME MEASURE: peptide exchange yield

Recorded peptide exchange yield, per entry:
{"BINDER": "ALLRLLPGL", "OUTCOME MEASURE": "peptide exchange yield", "REPORTED": "50 to 75%"}
{"BINDER": "SLNIRDFTM", "OUTCOME MEASURE": "peptide exchange yield", "REPORTED": "50 to 75%"}
{"BINDER": "FLQDSKVIFV", "OUTCOME MEASURE": "peptide exchange yield", "REPORTED": "50 to 75%"}
{"BINDER": "VLLPQETAEIHL", "OUTCOME MEASURE": "peptide exchange yield", "REPORTED": "≥ 75%"}
{"BINDER": "LQALEVLKI", "OUTCOME MEASURE": "peptide exchange yield", "REPORTED": "10 to 20%"}

Please give peptide exchange yield, item by item, for the list that follows.
1. LLSAAEPVPA
2. ALLQKLQQL
3. ILEEQPMDMLL
4. ILIFHSVAL
5. VMLEMTPEL
6. VLFFNVQEV
7. YILGKFFAL
8. FLVEAPHDWDL

OUT:
1: 20 to 50%; 2: 50 to 75%; 3: 50 to 75%; 4: 50 to 75%; 5: 50 to 75%; 6: 50 to 75%; 7: 50 to 75%; 8: ≥ 75%
